Measured values drawn from patent US5312816A for this set.

study_system: Cathepsin D (Homo sapiens, UniProt P07339)
Construct: azocasein assay pH 5.0
Sequence (P07339 65-412): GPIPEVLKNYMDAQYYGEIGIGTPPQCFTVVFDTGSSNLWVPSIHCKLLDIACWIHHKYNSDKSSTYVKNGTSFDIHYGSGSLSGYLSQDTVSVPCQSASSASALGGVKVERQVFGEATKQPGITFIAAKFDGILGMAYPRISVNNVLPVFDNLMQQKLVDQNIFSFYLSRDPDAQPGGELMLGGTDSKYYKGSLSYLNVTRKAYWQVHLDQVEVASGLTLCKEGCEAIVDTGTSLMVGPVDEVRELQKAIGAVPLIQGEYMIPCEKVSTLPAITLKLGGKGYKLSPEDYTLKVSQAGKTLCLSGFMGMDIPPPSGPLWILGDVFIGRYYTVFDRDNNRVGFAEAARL
assay_name: Human osteoporosis fibroblasts cathepsin D (azo-casein) activity
Format: cell-based
condition_context: Table X; human osteoporosis fibroblasts, DMEM +10% FCS + P/S; read-out: Cathepsin D IC50
measured_endpoint: IC50 (nM)
Enter your answer as a number in nM; do not include the unit.

Reported IC50 ( BC(=O)O ) = 1190

Reported IC50 ( CCCCCCCCCCCCCCCC[N+](C)(C)[BH2-]C(=O)O ) = 2060

Reported IC50 ( [BH3-][NH+]1CCOCC1 ) = 4400

Reported IC50 ( CCNC(=O)[BH2-][NH+](C)C ) = 1930

Reported IC50 ( O=C(O)[BH2-][n+]1ccccc1 ) = 8160

###

study_system: Clostridium histolyticum Collagenase Type I
assay_name: Commercial collagenase type I
condition_context: Table IX; commercial enzyme preparation
Where a name gives a salt, the structure may show the parent alone.
Entries and their pIC50 values follow.
Schema: pIC50 number; meaning minus log10 of the concentration expressed in molar units.

# compound, measured_endpoint, test_value
rows = [
    ("C[NH+](C)[BH2-]C(=O)O [Compound 23, Dimethylamine-carboxyborane, sodium salt]", "pIC50", 3.18),
]

Reported pIC50 ( CCCCCCCCCCCCCCCC[N+](C)(C)[BH2-]C(=O)O ) = 3.21
